Just for reference, patent US20190300590A1 is where these values come from.

- SUBJECT_OF_TEST: T1, IL-23R on DB cells (human, UniProt Q5VWK5 24-629)
- T1 sequence (looked up): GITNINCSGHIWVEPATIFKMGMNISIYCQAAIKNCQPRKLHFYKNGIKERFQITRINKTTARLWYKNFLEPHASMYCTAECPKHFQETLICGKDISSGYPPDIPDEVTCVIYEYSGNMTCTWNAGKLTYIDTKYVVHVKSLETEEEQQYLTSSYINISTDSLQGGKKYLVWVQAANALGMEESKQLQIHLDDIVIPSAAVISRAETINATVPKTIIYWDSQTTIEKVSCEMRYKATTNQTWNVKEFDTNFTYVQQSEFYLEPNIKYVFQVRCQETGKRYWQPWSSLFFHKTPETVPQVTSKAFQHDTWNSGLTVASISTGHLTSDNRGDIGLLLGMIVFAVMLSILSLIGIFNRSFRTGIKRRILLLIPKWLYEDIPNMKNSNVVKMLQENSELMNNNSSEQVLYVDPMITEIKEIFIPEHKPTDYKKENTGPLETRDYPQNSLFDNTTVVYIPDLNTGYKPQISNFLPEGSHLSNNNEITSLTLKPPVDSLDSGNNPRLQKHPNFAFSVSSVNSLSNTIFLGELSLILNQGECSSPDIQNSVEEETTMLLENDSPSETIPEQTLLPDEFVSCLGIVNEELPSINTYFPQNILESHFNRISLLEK
- PROCEDURE_SUMMARY: cell-based or functional assay
Provide the recorded pStat3 HTRF IC50 for the entries that follow.

Previously resolved entries follow.
[
  {
    "BINDER": "XNTWQXFXXKNN (Ac; Pen-Pen disulfide; Phe(4-OMe); 2-Nal; Achc; NH2; DIG linker joins the two subunits) [[Ac-[Pen]-NTWQ-[Pen]-[Phe(4-OMe)]-[2-Nal]-[Achc]-KNN-NH2]2DIG]",
    "OBSERVED_MEASUREMENT": "< 10 nM"
  },
  {
    "BINDER": "XNTWQXFXXKNN (Ac; Pen-Pen disulfide; Phe(4-CONH2); 2-Nal; Acvc; NH2; DIG linker joins the two subunits) [[Ac-[Pen]-NTWQ-[Pen]-[Phe(4-CONH2)]-[2-Nal]-[Acvc]-KNN-NH2]2DIG]",
    "OBSERVED_MEASUREMENT": "< 10 nM"
  },
  {
    "BINDER": "XQTWQXFXLQNN (Ac; Pen-Pen disulfide; Phe[4-(2-aminoethoxy)]; 2-Nal; α-Me-Leu; NH2; PEG25 linker joins the two subunits) [[Ac-[Pen]-QTWQ-[Pen]-[Phe[4-(2-aminoethoxy)]-[2-Nal]-[α-Me-Leu]-QNN-NH2]2PEG25]",
    "OBSERVED_MEASUREMENT": "10 to 25 nM"
  }
]

// switching to the query binder
-- ask Give the value of pStat3 HTRF IC50 reported for the following: XQTWQXFXLQNN (Ac; Pen-Pen disulfide; Phe[4-(2-aminoethoxy)]; 2-Nal; α-Me-Leu; NH2; DIG linker joins the two subunits) [[Ac-[Pen]-QTWQ-[Pen]-[Phe[4-(2-aminoethoxy)]-[2-Nal]-[α-Me-Leu]-QNN-NH2]2DIG]
-- reply 10 to 25 nM
